Voltage-gated inwardly rectifying potassium channel KCNH2 (Homo sapiens, UniProt Q12809): recorded pIC50 for assorted molecules
Sequence (Q12809 whole entry): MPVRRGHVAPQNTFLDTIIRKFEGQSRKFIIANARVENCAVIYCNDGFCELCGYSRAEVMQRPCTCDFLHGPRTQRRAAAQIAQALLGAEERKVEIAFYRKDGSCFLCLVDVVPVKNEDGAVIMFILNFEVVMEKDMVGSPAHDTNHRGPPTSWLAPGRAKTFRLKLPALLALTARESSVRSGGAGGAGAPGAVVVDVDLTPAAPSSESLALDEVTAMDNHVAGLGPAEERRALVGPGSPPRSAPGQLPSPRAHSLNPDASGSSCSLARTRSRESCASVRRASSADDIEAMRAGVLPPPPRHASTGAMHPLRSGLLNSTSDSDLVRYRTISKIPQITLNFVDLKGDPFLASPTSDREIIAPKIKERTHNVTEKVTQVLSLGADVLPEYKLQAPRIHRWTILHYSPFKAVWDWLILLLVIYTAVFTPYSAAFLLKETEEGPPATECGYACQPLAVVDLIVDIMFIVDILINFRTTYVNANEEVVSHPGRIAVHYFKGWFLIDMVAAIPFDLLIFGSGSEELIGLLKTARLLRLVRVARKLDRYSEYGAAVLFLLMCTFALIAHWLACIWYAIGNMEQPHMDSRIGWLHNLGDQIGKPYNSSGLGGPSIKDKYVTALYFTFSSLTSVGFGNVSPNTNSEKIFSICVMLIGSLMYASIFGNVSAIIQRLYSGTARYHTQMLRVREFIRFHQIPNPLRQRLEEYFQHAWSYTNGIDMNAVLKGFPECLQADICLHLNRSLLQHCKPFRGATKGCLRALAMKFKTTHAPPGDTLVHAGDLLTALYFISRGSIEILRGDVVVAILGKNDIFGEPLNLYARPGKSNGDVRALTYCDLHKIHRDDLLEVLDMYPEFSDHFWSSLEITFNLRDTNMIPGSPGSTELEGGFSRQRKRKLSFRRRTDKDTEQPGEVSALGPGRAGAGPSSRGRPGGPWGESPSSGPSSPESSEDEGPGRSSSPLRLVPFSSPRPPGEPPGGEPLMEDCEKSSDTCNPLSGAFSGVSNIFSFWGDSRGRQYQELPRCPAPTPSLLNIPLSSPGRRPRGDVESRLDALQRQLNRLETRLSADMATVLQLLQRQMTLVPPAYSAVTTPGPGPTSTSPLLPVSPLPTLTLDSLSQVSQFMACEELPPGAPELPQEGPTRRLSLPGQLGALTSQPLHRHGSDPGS
In simple prose, pIC50 is minus the logarithm base ten of a concentration in moles per litre.

See these solved cases before continuing.
[[record]]
compound_structure = "COC(=O)NC(=O)c1ccsc1NC(=O)c1ccc(S(=O)(=O)N2CCC(OC)CC2)cc1"
measurement = 5.05

[[record]]
compound_structure = "Cc1ccnc(NC(=O)c2ccsc2NC(=O)c2ccc(S(=O)(=O)N3CCCCC3)cc2)n1"
measurement = 5.77


Request: Requested read-out pIC50, target or system Voltage-gated inwardly rectifying potassium channel KCNH2 (Homo sapiens, UniProt Q12809), entry COC(=O)NC(=O)c1ccsc1NC(=O)c1ccc(S(=O)(=O)N2CCCCC2)cc1
Response: 5.48

###

System: Mycobacterium tuberculosis
Experiment: Antimycobacterial activity against Mycobacterium tuberculosis H37Rv measured by MABA assay
Type: functional
endpoint-name: MIC (mg/L)
Give just the numeric value; mg/L need not be written.

Recorded MIC, per entry:
[[record]]
molecule = "COC(=O)NC(=O)c1ccsc1NC(=O)c1ccc(S(=O)(=O)N2CCC2)cc1"
endpoint_name = "MIC"
measurement = 0.13

[[record]]
molecule = "O=C(Nc1sccc1C(=O)Nc1ccccn1)c1ccc(S(=O)(=O)N2CCCCC2)cc1"
endpoint_name = "MIC"
measurement = 29.6

[[record]]
molecule = "COC(=O)NC(=O)c1ccsc1NC(=O)c1ccc(S(=O)(=O)NC2CCCCC2)cc1"
endpoint_name = "MIC"
measurement = 0.92

[[record]]
molecule = "CCOC(=O)NC(=O)c1ccsc1NC(=O)c1ccc(S(=O)(=O)Nc2ccc(C)cc2)cc1"
endpoint_name = "MIC"
measurement = 3.56

[[record]]
molecule = "COC(=O)NC(=O)c1ccsc1NC(=O)c1ccc(S(=O)(=O)NC23CC4CC(CC(C4)C2)C3)cc1"
endpoint_name = "MIC"
measurement = 1.96


Request: Entry CCOC(=O)NC(=O)c1ccsc1NC(=O)c1ccc(S(=O)(=O)N2CCC2)cc1 : reported MIC = ?
Response: 0.049

Request: Which MIC is listed for CCOC(=O)NC(=O)c1ccsc1NC(=O)c1ccc(S(=O)(=O)Nc2ccc(OC(F)(F)F)cc2)cc1 ?
Response: 26.3

Request: # get_value(readout='MIC', item= Cc1ccnc(NC(=O)c2ccsc2NC(=O)c2ccc(S(=O)(=O)N3CCCCC3)cc2)n1 )
Response: 0.24

Request: Need MIC, item CCOC(=O)NC(=O)c1ccsc1NC(=O)c1ccc(S(=O)(=O)Nc2ccc(F)cc2)cc1
Response: 0.98

###

Test: Selectivity index, Ratio of IC50 for Vero cells over MIC for Mycobacterium tuberculosis H37Rv
Format: toxicity
Settings: monkey
The recorded selectivity ratio of each item maps onto one of these classes: I: < 20; II: ≥ 20 and < 600; III: ≥ 600

[[record]]
compound_structure = "CCOC(=O)NC(=O)c1ccsc1NC(=O)c1ccc(S(=O)(=O)N2CCCCC2)cc1"
answer_label = "III"

[[record]]
compound_structure = "CCN(C)S(=O)(=O)c1ccc(C(=O)Nc2sccc2C(=O)NC(=O)OC)cc1"
answer_label = "II"

[[record]]
compound_structure = "CCCOC(=O)NC(=O)c1ccsc1NC(=O)c1ccc(S(=O)(=O)N2CCCCC2)cc1"
answer_label = "III"

[[record]]
compound_structure = "COC(=O)NC(=O)c1ccsc1NC(=O)c1ccc(S(=O)(=O)N2CCC(C)CC2)cc1"
answer_label = "II"

[[record]]
compound_structure = "CCOC(=O)NC(=O)c1ccsc1NC(=O)c1ccc(S(=O)(=O)N2CCC(OC)CC2)cc1"
answer_label = "III"

[[record]]
compound_structure = "CCOC(=O)NC(=O)c1ccsc1NC(=O)c1ccc(S(=O)(=O)Nc2ccc(F)cc2)cc1"
answer_label = "II"


Request: Which of the defined bands does the recorded selectivity ratio of CCOC(=O)NC(=O)c1ccsc1NC(=O)c1ccc(S(=O)(=O)N2CCCC2)cc1 sit within?
Response: III

Request: Textbook exercise: identify the category of the compound given here, COC(=O)NC(=O)c1ccsc1NC(=O)c1ccc(S(=O)(=O)N(C)C)cc1 , according to its measured value.
Response: I

Request: Please indicate the class for COC(=O)NC(=O)c1ccsc1NC(=O)c1ccc(S(=O)(=O)N2CCCCC2)cc1 based on its selectivity ratio.
Response: I

Request: Category of CCCCNS(=O)(=O)c1ccc(C(=O)Nc2sccc2C(=O)NC(=O)OC)cc1 :
Response: II

Request: Class for Cc1ccnc(NC(=O)c2ccsc2NC(=O)c2ccc(S(=O)(=O)N3CCOCC3)cc2)n1 ?
Response: II

Origin of measurements: ChEMBL document CHEMBL5154717
